Test target: Indoleamine 2,3-dioxygenase 1 (Homo sapiens)
Sequence (P14902 whole entry): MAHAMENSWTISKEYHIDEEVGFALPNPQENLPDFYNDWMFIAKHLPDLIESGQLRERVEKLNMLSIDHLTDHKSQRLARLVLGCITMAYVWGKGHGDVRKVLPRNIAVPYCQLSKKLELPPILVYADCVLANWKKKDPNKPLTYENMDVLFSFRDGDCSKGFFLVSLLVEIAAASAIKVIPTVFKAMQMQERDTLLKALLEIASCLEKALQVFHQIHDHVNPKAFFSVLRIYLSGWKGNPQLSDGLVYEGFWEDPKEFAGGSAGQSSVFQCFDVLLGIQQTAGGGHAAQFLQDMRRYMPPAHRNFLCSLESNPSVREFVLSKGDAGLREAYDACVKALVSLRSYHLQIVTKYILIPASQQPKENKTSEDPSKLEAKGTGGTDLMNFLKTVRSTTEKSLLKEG
Assay details: Inhibition of human recombinant IDO1 measured after 60 mins by fluorescence based analysis
Measured quantity: IC50 (µM)
Numeric only. Scale: µM

Here is how some molecules turned out for IC50.
COc1ccc2/c(=N/O)cc(C(=O)N3CCN(S(=O)(=O)c4ccccc4C(F)(F)F)CC3)oc2c1 :: 8.85
COc1ccc2/c(=N/O)cc(C(=O)N3CCN(S(=O)(=O)c4ccc(Cl)cc4)CC3)oc2c1 :: 7.07
Cc1ccc2/c(=N/O)cc(C(=O)N3CCN(S(=O)(=O)c4ccc(F)cc4)CC3)oc2c1 :: 9.18
COc1ccc2/c(=N/O)cc(C(=O)N3CCN(S(=O)(=O)c4ccc(C(F)(F)F)cc4)CC3)oc2c1 :: 2.69
Cc1ccc2/c(=N/O)cc(C(=O)N3CCN(S(=O)(=O)c4cccc([N+](=O)[O-])c4)CC3)oc2c1 :: 7.52
COc1ccc(S(=O)(=O)N2CCN(C(=O)c3c/c(=N\O)c4ccc(OC)cc4o3)CC2)cc1 :: 6.35

Moving on to another molecule below.
-- ask For the molecule COc1ccc2/c(=N/O)cc(C(=O)N3CCN(S(=O)(=O)c4ccc([N+](=O)[O-])cc4)CC3)oc2c1 , what IC50 is on record?
-- reply 3.58
